Target: T1, human B7-H4 (purified monomeric recombinant human protein, ACRO biosystems) (human, UniProt Q7Z7D3 29-258, limits assumed, chemically biotinylated (EZ-Link NHS-LC-Biotin) in the yeast display and competition experiments; non-biotinylated in SPR)
T1 construct: Bought recombinant monomeric protein; also called B7x; B7S1
T1 sequence: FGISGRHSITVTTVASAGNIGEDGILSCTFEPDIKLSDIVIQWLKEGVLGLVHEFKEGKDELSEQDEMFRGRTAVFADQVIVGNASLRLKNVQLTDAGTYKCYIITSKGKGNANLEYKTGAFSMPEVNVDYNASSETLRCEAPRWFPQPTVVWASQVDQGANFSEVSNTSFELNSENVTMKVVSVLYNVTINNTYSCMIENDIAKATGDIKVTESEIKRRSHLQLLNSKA
Assay: SPR (Carterra LSA); scFv-Fc captured on anti-human IgG Fc, antigen injected
Method: Finally, the affinity of the 24 clones was determined using high-throughput surface plasmon resonance (SPR). The supernatants were arrayed by non-covalent capture in a medium-density SPR chip previously coupled with an anti-human polyclonal antibody and (at least 4 replicates per clone). Non-biotinylated antigen was used for all affinity measurements and sensorgrams were fitted using a pseudo-first-order kinetic model (Lundström 1994). […]
TEST READOUT: koff (s⁻¹)
# output: bare number, implied unit s⁻¹

B10 scFv-Fc (scFv, V domains shown, Tested as scFv-Fc fusion (human IgG1 Fc, vector pDNL9) in crude yeast supernatant; Combo 2 library) VH: EVQLVESGGGVVQPGRSLRLSCAASGFTFSTRAMNWVRQAPGKGLEWVSAISGTGDTTYYADSVKGRFTISRDNSKNTLYLQMNSLRAEDTAVYYCARKRWYGMDVWGQGTTVTVSS VL: SYELTQPPSVSVAPGKTARITCGGNNIGSKSVHWYQQKPGQAPVLVVYDDSDRPSGIPERFSGSNSGNTATLTISRVEAGDEADYYCQVWGRYQMIFGTGTKLTVL	2.9e-05

Incoming: Quickly give me recorded koff for B12 scFv-Fc (scFv, V domains shown, Tested as scFv-Fc fusion (human IgG1 Fc, vector pDNL9) in crude yeast supernatant; Combo 2 library) VH: EVQLVESGGGVVQPGRSLRLSCAASGFTFSDRAMNWVRQAPGKGLEWVSAISGTGASTYYADSVKGRFTISRDNSKNTLYLQMNSLRAEDTAVYYCARKRWYGMDVWGQGTTVTVSS VL: SYELTQPPSVSVAPGKTARITCGGNNIGSKSVHWYQQKPGQAPVLVVYDDSDRPSGIPERFSGSNSGNTATLTISRVEAGDEADYYCQVWDRGMIFGTGTKLTVL
Outgoing: 2.8e-05

Incoming: Complete the entry with koff for A04 scFv-Fc (scFv, V domains shown, Tested as scFv-Fc fusion (human IgG1 Fc, vector pDNL9) in crude yeast supernatant; Combo 1 library) VH: EVQLVESGGGVVQPGRSLRLSCAASGFTFSSRSMNWVRQAPGKGLEWVSAISGSGDTTYYADSVKGRFTISRDNSKNTLYLQMNSLRAEDTAVYYCARKRWYGMDVWGQGTTVTVSS VL: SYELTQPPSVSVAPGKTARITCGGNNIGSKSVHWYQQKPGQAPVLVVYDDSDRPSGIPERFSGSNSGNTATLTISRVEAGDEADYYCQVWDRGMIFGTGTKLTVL
Outgoing: 2.1e-05

Incoming: Retrieve koff measured for A05 scFv-Fc (scFv, V domains shown, Tested as scFv-Fc fusion (human IgG1 Fc, vector pDNL9) in crude yeast supernatant; Combo 1 library) VH: EVQLVESGGGVVQPGRSLRLSCAASGFTYSSRAMNWVRQAPGKGLEWVSAISGSGSNAYYADSVKGRFTISRDNSKNTLYLQMNSLRAEDTAVYYCARKRWYGMDVWGQGTTVTVSS VL: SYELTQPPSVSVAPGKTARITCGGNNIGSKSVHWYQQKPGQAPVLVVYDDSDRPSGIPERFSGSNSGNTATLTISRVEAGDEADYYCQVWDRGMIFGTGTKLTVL and print it.
Outgoing: 2.2e-05

Incoming: // fetch koff given entry B11 scFv-Fc (scFv, V domains shown, Tested as scFv-Fc fusion (human IgG1 Fc, vector pDNL9) in crude yeast supernatant; Combo 2 library) VH: EVQLVESGGGVVQPGRSLRLSCAASGFTFTSRAMNWVRQAPGKGLEWVSAISGSGATAYYADSVKGRFTISRDNSKNTLYLQMNSLRAEDTAVYYCARKRWYGMDVWGQGTTVTVSS VL: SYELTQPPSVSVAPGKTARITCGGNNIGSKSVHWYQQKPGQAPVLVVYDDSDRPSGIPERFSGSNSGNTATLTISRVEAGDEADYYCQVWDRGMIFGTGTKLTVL
Outgoing: 1.2e-05

Data origin, for the record: patent US20240309095A1
